B1: TRIM55 (parent)
chain: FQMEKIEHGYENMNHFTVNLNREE

- Variants of: B1
- experimentalDetails: protein stability index of a GFP-peptide fusion (GPS, HEK-293T) (PSI 1-6); higher = more stable;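 also: lentivirally expressed fusions sorted by FACS into six bins by GFP to DsRed ratio, PSI derived from sequencing read proportions per bin multiplied by bin number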
- testContext: c terminus: a fixed tail appended
// label = Yes if protein stability index is not less than 3, otherwise No

Use the examples below as a reference point.
In [3]: df
Out[3]:
   mutationkey  classname
0          E7P         No
1          F1C        Yes
2          M3N        Yes
3          M3E        Yes
4         T17W         No
5         E24I         No
6         M13H        Yes

Evaluate "H15I" : protein stability index at minimum 3?
No
